Ref: ChEMBL document CHEMBL1201862

# Tested on: M14
# METHOD SUMMARY: NCI tumour cell line growth inhibition, 48 h
The source made the active and inactive calls. Cut-off read from the data, not from the text of the source: active = GI50 up to about 1.1 µM and inactive = higher.
Could you please pick one outcome from this set? label 1 (active), label 0 (inactive)

Completed entries (count: 8):
COMPOUND	EXPERIMENTAL SYSTEM	CLASS ASSIGNMENT
N=C(N)N/N=C/c1c(-c2ccc(Cl)c([N+](=O)[O-])c2)nc2sc(Cl)cn12	M14	label 0
O=P(O)(O)c1ccccc1Oc1ccccc1	M14	label 0
COC(=O)C1=C(C(=O)OC)C2(/N=C(\Nc3ccccc3)c3ccccc3)N(c3ccc(OC)cc3)CC(c3ccccc3)N2O1 (stereo not drawn)	M14	label 0
COc1cc(/C=C2\C[C@H]3[C@@H]4CCc5cc(O)ccc5[C@H]4CC[C@]3(C)C2=O)cc(OC)c1OC	M14	label 0
CC/C=C\C/C=C\C/C=C\CCCCCCCC(=O)OCC	M14	label 0
CC(C)(C)c1cc(Cc2ccc(S(C)(=O)=O)cc2)c(O)c(C(C)(C)C)c1	M14	label 0
CC(=O)N(C)c1ccc2ncccc2c1[N+](=O)[O-]	M14	label 0
CC(C)(C)OC(=O)N1CCC(NC(=O)NC2CCN(C(=O)OC(C)(C)C)CC2)CC1	M14	label 0

Ask | Which outcome was entered for the compound O=NNc1cnc(O)nc1O in this test?
Reply | label 0

Ask | Which outcome was entered for the compound CN(C)c1ccc(C=C2C(=O)OC(C)(C)OC2=O)cc1Br in this test?
Reply | label 0

Ask | Which outcome was entered for the compound c1ccc(N2CCN(CCCN3CCc4c([nH]c5ccccc45)C3c3cccnc3)CC2)cc1 (stereo not drawn) in this test?
Reply | label 0

Ask | Which outcome was entered for the compound CC(=O)Oc1cc2c(cc1OC(C)=O)C1(C)CCC2(C)c2cc(OC(C)=O)c(OC(C)=O)cc21 in this test?
Reply | label 0

Ask | Which outcome was entered for the compound Oc1ccc(I)c2cccnc12 in this test?
Reply | label 0

Ask | Which outcome was entered for the compound Fc1ccccc1C1SCC2=Nc3ccccc3CN21 (stereo not drawn) in this test?
Reply | label 0

Ask | Which outcome was entered for the compound COc1ccc(C2C(Cl)C(=O)N2n2cnc3ccccc3c2=O)cc1OC (stereo not drawn) in this test?
Reply | label 0

Ask | Which outcome was entered for the compound CC(Oc1ccccc1Cl)C(=O)NN1C(=O)CSC1c1ccccc1 (stereo not drawn) in this test?
Reply | label 0

Ask | Which outcome was entered for the compound C=C(C)C(=O)OC1CC2=CC(CC3(C)OC3C3OC(=O)C(=C)C13)OC2=O (stereo not drawn) in this test?
Reply | label 0

Ask | Which outcome was entered for the compound COc1cc(OC)c(OC)cc1/C=N/NC(=O)N/N=C/c1cc(OC)c(OC)cc1OC in this test?
Reply | label 0

Ask | Which outcome was entered for the compound COc1ccc2nc3cc([N+](=O)[O-])ccc3c(Nc3ccc(S(=O)(=O)Nc4ncccn4)cc3)c2c1 in this test?
Reply | label 0

Ask | Which outcome was entered for the compound Cc1ccc(N2C(=O)N(c3ccc(C)cc3)C3(SC=NN3C)C2=O)cc1 (stereo not drawn) in this test?
Reply | label 0

Ask | Which outcome was entered for the compound COc1c(OC/C=C(\C)CCC=C(C)C)ccc2ccc(=O)oc12 in this test?
Reply | label 0

Ask | Which outcome was entered for the compound C/C(=C/CC[C@](C)(OC1OC(CO)C(O)C(O)C1O)[C@H]1CC[C@]2(C)[C@@H]1CC[C@@H]1[C@@]3(C)CC[C@H](O)C(C)(C)[C@@H]3C[C@H](O)[C@]12C)CO (stereo partly drawn) in this test?
Reply | label 0

Ask | Which outcome was entered for the compound Cc1cc2c(cc1C)[n+]([O-])c(C(=O)N1CCN(c3ccc([N+](=O)[O-])cc3)CC1)c(C)[n+]2[O-] in this test?
Reply | label 0

Ask | Which outcome was entered for the compound Cc1ccc(S(=O)(=O)NN=C2C(C)(C)CC2(C)C)cc1 in this test?
Reply | label 0

Ask | Which outcome was entered for the compound Cc1ccc2c(CC(=O)O)cc(=O)oc2c1 in this test?
Reply | label 0

====

# System: OVCAR-3
# METHOD SUMMARY: NCI tumour cell line growth inhibition, 48 h
Activity calls are given as the source filed them. No stated cut-off is given here; in the data, active = GI50 up to about 1.1 µM and inactive = higher.
MEASURED ENDPOINT: GI50

Examples from the recorded data:
COMPOUND	GI50
COc1c(OC/C=C(\C)CCC=C(C)C)ccc2ccc(=O)oc12	> 100 µM (inactive)
C/C(=N\n1c(Cc2ccccc2)n[nH]c1=O)c1ccc([N+](=O)[O-])cc1	> 100 µM (inactive)
C/C(=C/CC[C@](C)(OC1OC(CO)C(O)C(O)C1O)[C@H]1CC[C@]2(C)[C@@H]1CC[C@@H]1[C@@]3(C)CC[C@H](O)C(C)(C)[C@@H]3C[C@H](O)[C@]12C)CO (some centres undefined)	24.2 µM (inactive)
COC(=O)c1ccccc1C1CN=NC12Cc1ccc(C)cc1C2=O (centres undefined)	38.6 µM (inactive)
CCCN(CCCC(NC(C)=O)C(=O)NCc1ccccc1)C(=O)N(C)N=O (centres undefined)	> 100 µM (inactive)
CN(CCCN=C=S)CCCN1c2ccccc2CCc2ccccc21	1.66 µM (inactive)

Ask | Param item = Cc1c(Cl)cccc1NC(=O)C(=O)C(C(=O)c1ccccc1-c1ccccc1)C1OC(=O)c2ccccc21 (centres undefined) ; retrieve measured GI50.
Reply | 16 µM (inactive)

Ask | Param item = CCOC(=O)Nc1ccc(S(=O)(=O)OC)cc1.CCOC(=O)Nc1ccc(S(=O)(=O)OC)cc1.Cc1cn(C2CC(O)C(CO)O2)c(=O)[nH]c1=O ; retrieve measured GI50.
Reply | > 100 µM (inactive)

Ask | Param item = CCCN(CCCCC(NC(C)=O)C(=O)NCc1ccccc1)C(=O)N(CCCl)N=O (centres undefined) ; retrieve measured GI50.
Reply | > 100 µM (inactive)

Ask | Param item = CN1CCC2(CC1)SC[C@H]1C(=O)N(c3ccc(Cl)cc3)C(=O)N12 ; retrieve measured GI50.
Reply | > 100 µM (inactive)

Ask | Param item = O=C(Nc1cccc(F)c1)c1cc2ccc(O)cc2o/c1=N\c1cccc(F)c1 ; retrieve measured GI50.
Reply | 4.91 µM (inactive)

Ask | Param item = O=C(CN1CCOCC1)NC1=Nc2ncccc2C(=O)NN1 ; retrieve measured GI50.
Reply | > 10 µM (inactive)

Ask | Param item = CN(CCN(C)C(=S)NN)C(=S)NN ; retrieve measured GI50.
Reply | > 100 µM (inactive)

Ask | Param item = COc1cc(OCc2ccccc2)c2c(CCC(=O)O)cc(=O)oc2c1.COc1cc(OCc2ccccc2)cc2oc(=O)cc(CCC(=O)O)c12 ; retrieve measured GI50.
Reply | 31 µM (inactive)

====

# Tested on: UACC-257
# METHOD SUMMARY: NCI tumour cell line growth inhibition, 48 h
The source made the active and inactive calls. Cut-off read from the data, not from the text of the source: active = GI50 up to about 1.1 µM and inactive = higher.
MEASURED ENDPOINT: GI50

Examples from the recorded data:
>>> df
                                   compound             observed
0  CC(=O)C1=C(C)N(c2ccc(C)cc2)C2(O)C3=C(C(=O)c4ccccc4C3=O)C(O)=CC12Cl (stereo unspecified)   9.38 µM (inactive)
1     O=c1c2cc([N+](=O)[O-])ccc2nc2n1CCCCC2  > 100 µM (inactive)
2  N/N=c1\c2ccccc2c2ccc3c4ccccc4/c(=N\N)c3c12  > 100 µM (inactive)
3       CCOC(=O)NN(C(=O)OCC)c1c(C)cc(C)cc1C  > 100 µM (inactive)
4  COc1cc(OC)c(OC)cc1/C=C/c1cc[n+](C)c2ccccc12   16.1 µM (inactive)
5         CO/C(=N\N=C\c1ccc(Cl)cc1)c1ccncc1  > 100 µM (inactive)
6  COc1cc(OC)c(OC)cc1/C=N/NC(=O)N/N=C/c1cc(OC)c(OC)cc1OC  > 100 µM (inactive)
7  Cc1ccc(NC(=O)C(=O)Cc2cc[n+]([O-])cc2)cc1  > 100 µM (inactive)
8              S=C1C=C(c2ccccc2)Sc2ccccc2N1   48.6 µM (inactive)
9   CN(C)c1ccc(C=C2C(=O)OC(C)(C)OC2=O)cc1Br  > 100 µM (inactive)

Ask | Param item = CCOC(=O)N(C)CCC1CC=CC(=O)C1c1cccc(OC)c1OC (stereo unspecified) ; retrieve measured GI50.
Reply | 13.4 µM (inactive)

Ask | Param item = O=[N+]([O-])c1ccc(/N=N/N2CCCC2)cc1 ; retrieve measured GI50.
Reply | > 100 µM (inactive)

Ask | Param item = O=C1NC(=S)NC(=O)C1=Cc1ccc(-c2ccccc2)cc1 ; retrieve measured GI50.
Reply | > 100 µM (inactive)

Ask | Param item = CC(Oc1ccccc1Cl)C(=O)NN1C(=O)CSC1c1ccccc1 (stereo unspecified) ; retrieve measured GI50.
Reply | > 100 µM (inactive)

Ask | Param item = NNC(=O)N/N=C1\C(=O)N(c2nccs2)C(=O)C(=O)C1c1nc2ccccc2s1 (stereo unspecified) ; retrieve measured GI50.
Reply | > 100 µM (inactive)

Ask | Param item = Cc1ccc(-c2cc(=O)c(=O)[nH][nH]2)cc1 ; retrieve measured GI50.
Reply | > 100 µM (inactive)
